Test system: HIV/HTLV III, RF strain
Assay: p24 viral antigen capture assay (ELISA) in C8166 CD4+ T-cells
Assay type: cell-based
Settings: Human immunodeficiency virus 1; p24 antigen, C8166 cells, 72 h post-infection; first of two separate assays; read-out: ID50 (dose of compound required to inhibit viral replication by 50 percent)
QUANTITY: IC50 (nM)
Give the value in nM but do not write nM after it.

// query IC50 value for entry Cc1cn([C@H]2C[C@H](N=[N+]=[N-])[C@@H](CO)O2)c(=O)[nH]c1=O
3
